# assayed_target: human Claudin-6 (CLDN6) (human) (UniProt P56747)
# method_description: FACS, limiting dilution, OV90 cells
result_type: FACS signal at 1.6 nM

Form field: reported FACS signal at 1.6 nM of AB S3 (antibody, V domains shown) VH: EVQLLESGGGLVQPGGSMRLSCAASGFTFSNYWMNWVRQAPGKGLEWIAQIRLKSDNYVTHYTDSVKGRFTISRDDSKRTVYLQMNSLRAEDTGIYYCSDGPPSGSWGQGTLLTVSS VL: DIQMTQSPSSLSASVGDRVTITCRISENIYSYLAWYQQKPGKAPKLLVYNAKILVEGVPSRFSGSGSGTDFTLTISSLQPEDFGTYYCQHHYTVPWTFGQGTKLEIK
1040

One more binder: AB S4 (antibody, V domains shown) VH: EVQLLESGGGLVQPGGSMRLSCAASGFTFSNYWMNWVRQAPGKGLEWIAQIRLKSDNYATHYTDSVKGRFTISRDDSKSTVYLQMNSLRAEDTGTYYCNDGPPSGSWGQGTLLTVSS VL: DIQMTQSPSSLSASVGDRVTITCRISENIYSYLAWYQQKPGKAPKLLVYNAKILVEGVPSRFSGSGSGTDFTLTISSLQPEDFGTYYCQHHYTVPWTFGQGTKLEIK
515

One more binder: AB S10 (antibody, V domains shown) VH: QVQLVQSGAEVKKPGASVKMSCKASGYTFTTYTMHWVRQAPGQGLEWIGFINPSSGYTEYAQKFQGRVTLTADKSTSTVYMELSSLRSEDTAVYYCANGDYYVGYWGQGTLVTVSS VL: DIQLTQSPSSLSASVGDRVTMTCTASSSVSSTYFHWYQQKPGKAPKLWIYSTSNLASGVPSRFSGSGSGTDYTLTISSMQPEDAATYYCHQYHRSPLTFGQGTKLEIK
4690
